molecular target: Aldo-keto reductase family 1 member B1 (Rattus norvegicus, UniProt P07943)
endpoint-name: IC50 (µM)

Please state recorded IC50 (tested on Aldo-keto reductase family 1 member B1 (Rattus norvegicus, UniProt P07943)) of `O=C(O)[C@H]1Cc2ccccc2N1C(=O)OCc1ccccc1` 41.4

Ok, now `Cc1ccc(S(=O)(=O)Oc2c(Cc3ccccc3)c(=O)n(C)c3ccccc23)cc1` 31.1

Ok, now `CN(C)C(=O)Oc1ccc2nnc3ccnn3c2c1` 38.7

1. O=S(=O)(Oc1ccc2nonc2c1)c1ccc(Cl)s1
2. O=C(O)[C@@H]1CSCN1C(=O)OCC1c2ccccc2-c2ccccc21
Kindly identify which of 1 and 2 has the larger recorded IC50 value. Selection: enter the item's label. 1
(1: 35.6 µM, 2: 3.92 µM)
